system: SEM cells; test: AUC of viability dose-response curve (% viability x log10 dose units); higher = less sensitive; settings: RPMI 5 mM glucose + 10% FBS; 48 h
ASSAY_METRIC: AUC of viability dose-response curve
Write the value as a bare number.

Reference set (2 entries):
compound=C[C@H]1O[C@H]([C@H](O)[C@@H]1O)N2\C=C(F)/C(=O)NC2=O assay_metric="AUC of viability dose-response curve" test_value=454
compound=C=CCO/N=C(/C[C@H]1O[C@@H]2O[C@]3(C)CC[C@H]4[C@H](C)CC[C@@H]([C@H]1C)[C@@]24OO3)[C@H]1O[C@@H]2O[C@]3(C)CC[C@H]4[C@H](C)CC[C@@H]([C@H]1C)[C@@]24OO3 assay_metric="AUC of viability dose-response curve" test_value=329

[ask] Lab note: need AUC of viability dose-response curve for `CC1=CC=C(C=C1)\C2=N\C3=CC=C(Cl)C=C3OC2` on SEM cells, anyone have it?
[reply] 418

[ask] Input CC/1=C(/N2[C@H](SC1)[C@H](NC(=O)C(N)C3=CC=CC=C3)C2=O)C(O)=O (stereo partly drawn)
[reply] 464

[ask] Input `CNC(=O)C1=CC=C(C)C(=C1)N2C(=C/C(=C(/Br)C2=O)OCC3=C(F)C=C(F)C=C3)\C`
[reply] 465

[ask] Input Nc1cccc2c1C(=O)N(C1CCC(=O)NC1=O)C2=O (stereo not drawn)
[reply] 349

----------
tested on: P12-Ichikawa; assay: cell viability relative to DMSO control; higher = less cytotoxic; conditions: RPMI 5 mM glucose + 10% FBS; 48 h; 0.00234 µM
Reported cell viability values are given for each entry in this list.
Note: unit % is implicit; provide only the numeric part.

Reference set (6 entries):
smiles_text=C[C@H]1O[C@H](C[C@H](O)[C@@H]1O)O[C@H]2[C@@H](O)C[C@@H](O[C@@H]2C)O[C@H]3[C@@H](O)C[C@@H](O[C@@H]3C)O[C@H]4CC[C@@]5(C)[C@H](CC[C@@H]6[C@@H]5C[C@@H](O)[C@]7(C)[C@H](CC[C@]67O)C/8=C/C(=O)OC8)C4 test_value=123
smiles_text=C[C@@]1(C(=O)Nc2ccc(F)nc2)CCCN1c1nc(Nc2cc(C3CC3)[nH]n2)c2cccn2n1 test_value=116
smiles_text=Cc1cccc(/C=N/Nc2cc(N3CCOCC3)nc(OCCc3ccccn3)n2)c1 test_value=97.5
smiles_text=COc1cc(CNC(=O)CCCC/C=C/C(C)C)ccc1O test_value=105
smiles_text=N#C[C@H](O[C@@H]1O[C@H](CO[C@@H]2O[C@H](CO)[C@@H](O)[C@H](O)[C@H]2O)[C@@H](O)[C@H](O)[C@H]1O)c1ccccc1 test_value=98.5
smiles_text=NC(=O)OCC(COC(N)=O)c1ccccc1 test_value=123

[ask] Dear colleague, I am looking for the recorded cell viability of the following compound: `C[C@]12CC[C@H]3[C@@H](CCC/4=C/C(=O)CC[C@]34C)[C@@H]1CC[C@@H]2OC(=O)CCC5CCCC5`
[reply] 84.3

----------
system: SEM cells; experiment: cell viability relative to DMSO control; higher = less cytotoxic; conditions: RPMI 5 mM glucose + 10% dialyzed FBS; 48 h; 0.19 µM
ASSAY_METRIC: cell viability (%)
Note: unit % is implicit; provide only the numeric part.

Reference set (8 entries):
molecule=CC(C)(O)/C=C\C(=O)[C@](C)(O)[C@H]1[C@H](O)C[C@]2(C)[C@@H]3CC=C4[C@@H](C=C(O)C(=O)C4(C)C)[C@]3(C)C(=O)C[C@@]12C study_system="SEM cells" unit_string=% test_value=17.5
molecule=C[C@H]1COC/2=C1/C(=O)C(=O)C3=C4CCCC(C)(C)C4=CC=C23 study_system="SEM cells" unit_string=% test_value=116
molecule=c1ccc(-c2oc3ncnc(NC[C@@H]4CCCO4)c3c2-c2ccccc2)cc1 study_system="SEM cells" unit_string=% test_value=136
molecule=C[S+](=O)([O-])c1ccc(Oc2cc(F)cc(C#N)c2)c2c1[C@H](O)C(F)(F)C2 study_system="SEM cells" unit_string=% test_value=121
molecule=CCOC(=O)/C=C/[C@H](C[C@@H]1CCNC1=O)NC(=O)[C@@H](CC(=O)[C@@H](NC(=O)c1cc(C)on1)C(C)C)Cc1ccc(F)cc1 study_system="SEM cells" unit_string=% test_value=133
molecule=NC(=O)OCC(COC(N)=O)c1ccccc1 study_system="SEM cells" unit_string=% test_value=99.9
molecule=COc1cc(C(=O)NS(=O)(=O)c2ccccc2C)ccc1Cc1cn(C)c2ccc(NC(=O)OC3CCCC3)cc12 study_system="SEM cells" unit_string=% test_value=83.2
molecule=COC1=CC=C2CN(C)CC[C@@]34\C=C/[C@H](O)C[C@@H]3OC1=C24 study_system="SEM cells" unit_string=% test_value=125

[ask] Dear colleague, I am looking for the recorded cell viability of the following molecule: `COC1=CC=C2/C3=N/CCN3\C(=N/C2=C1OC)NC(=O)C4=CC=CN=C4`
[reply] 113
